Molecular target: UniProt:Q96FL8
Structures can show the parent of a compound that is named as a salt.
Metric Name: IC50 (µM)
Report only the number, with the unit µM understood.

Compound | IC50, µM
CN(C)C(=N)NC(=N)NCCc1c[nH]c2ccc(Cl)cc12 [Ex 53, trifluoroacetic acid salt] | 398
N=C(N)NC(=N)NCCc1c[nH]c2cc(Cl)c(F)cc12 [Ex 48, trifluoroacetic acid salt] | 101
CN(C)C(=N)NC(=N)NCCc1c[nH]c2ccc(OC(F)(F)F)cc12 [Ex 33, hydrochloride] | 218

Now let's try a different one.
Tell me reported IC50 for Cn1cc(CCNC(=N)NC(=N)N)c2cc(F)ccc21 [Ex 4] , tested with UniProt:Q96FL8.
1570

* * *

Biological target: human MATE1 (Homo sapiens, UniProt Q96FL8)
Sequence (Q96FL8 1-570): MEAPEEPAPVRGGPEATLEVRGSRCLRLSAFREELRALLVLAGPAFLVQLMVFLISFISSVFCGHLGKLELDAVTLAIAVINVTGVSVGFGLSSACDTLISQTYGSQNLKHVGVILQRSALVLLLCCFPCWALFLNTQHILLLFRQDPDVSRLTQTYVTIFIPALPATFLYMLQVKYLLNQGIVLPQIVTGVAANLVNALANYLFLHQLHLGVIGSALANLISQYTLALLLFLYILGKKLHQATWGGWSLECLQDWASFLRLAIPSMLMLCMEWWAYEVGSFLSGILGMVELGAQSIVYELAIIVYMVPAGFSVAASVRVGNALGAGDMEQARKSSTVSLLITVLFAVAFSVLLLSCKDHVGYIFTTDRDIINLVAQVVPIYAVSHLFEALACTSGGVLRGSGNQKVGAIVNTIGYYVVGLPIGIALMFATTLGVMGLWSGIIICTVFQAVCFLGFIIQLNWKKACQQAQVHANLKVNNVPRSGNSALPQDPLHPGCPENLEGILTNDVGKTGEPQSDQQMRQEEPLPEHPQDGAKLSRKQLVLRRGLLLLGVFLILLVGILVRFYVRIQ
pIC50: −log10 of the molar value. Structures can show the parent of a compound that is named as a salt.
Given measured pIC50, output T if it is greater than or equal to 3 and F if not.

Compound | Classification
Cc1cccc2c(CCNC(=N)NC(=N)N)c[nH]c12 [Ex 59, trifluoroacetic acid salt] | T
N=C(N)NC(=N)NCCc1c[nH]c2cc(Cl)ccc12 [Ex 35, trifluoroacetic acid salt] | T
N=C(N)NC(=N)NCCc1c[nH]c2c(Cl)cccc12 [Ex 36, trifluoroacetic acid salt] | T
Cn1cc(CCNC(=N)NC(=N)N)c2cccnc21 [Ex 39, trifluoroacetic acid salt] | T
N=C(N)NC(=N)NCCc1c[nH]c2cc(F)c(F)c(F)c12 [Ex 50, trifluoroacetic acid salt] | T
Cc1[nH]c2ncccc2c1CCNC(=N)NC(=N)N [Ex 44, trifluoroacetic acid salt] | T

Is the recorded value of pIC50 equal to or greater than 3 for this compound? N=C(N)NC(=N)NCCc1c[nH]c2c(F)c(Cl)ccc12 [Ex 51, trifluoroacetic acid salt]
T

Is the recorded value of pIC50 equal to or greater than 3 for this compound? CN(C)C(=N)NC(=N)NCCc1c[nH]c2ccc(F)cc12 [Ex 24, hydrochloride]
F

* * *

Target: human PMAT (Homo sapiens)
Construct: expressed in transfected cells; host or cells: HEK293
Sequence (Q7RTT9 whole entry): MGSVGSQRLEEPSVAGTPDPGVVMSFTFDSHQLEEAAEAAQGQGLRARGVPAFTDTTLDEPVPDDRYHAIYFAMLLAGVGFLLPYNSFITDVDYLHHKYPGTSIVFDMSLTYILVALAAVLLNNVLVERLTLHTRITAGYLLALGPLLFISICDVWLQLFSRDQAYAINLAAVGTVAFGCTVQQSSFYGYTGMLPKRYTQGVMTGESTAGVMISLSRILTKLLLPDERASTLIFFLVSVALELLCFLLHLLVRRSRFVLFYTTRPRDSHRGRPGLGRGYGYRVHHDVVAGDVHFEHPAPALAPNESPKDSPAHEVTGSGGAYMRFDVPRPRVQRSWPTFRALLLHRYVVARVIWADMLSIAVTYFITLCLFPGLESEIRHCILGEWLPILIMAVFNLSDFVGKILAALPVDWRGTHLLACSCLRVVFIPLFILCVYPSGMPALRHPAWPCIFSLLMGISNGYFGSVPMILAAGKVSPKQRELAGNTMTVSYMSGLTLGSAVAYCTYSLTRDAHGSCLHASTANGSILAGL
Assay: Oxygen consumption rate (OCR) assay, HEK293 cells transfected with PMAT
Type: cell-based
Conditions: HEK293 cells stably transfected with human PMAT; MitoXpress Xtra, 2 hours; read-out: Oxygen Consumption Rate (OCR) IC50, PMAT
Structures can show the parent of a compound that is named as a salt.
# pIC50 listing for each entry below
Hey, just a heads up that pIC50 is the negative log base 10 of the concentration in molar.

Use these answered entries as a reference point.
Compound | pIC50
N=C(N)NC(=N)NCCc1c[nH]c2ncc(F)cc12 [Ex 43, trifluoroacetic acid salt] | 4.64
CN(C)C(=N)NC(=N)N | 3.54

Now let's try a different one.
Entry under review: N=C(N)NC(=N)NCCc1c[nH]c2nc(F)ccc12 [Ex 45, trifluoroacetic acid salt] . Reported pIC50?
4.85

* * *

Biological target: human PMAT (Homo sapiens)
Construct: expressed in transfected cells; host or cells: HEK293
Experiment: Oxygen consumption rate (OCR) assay, HEK293 cells transfected with PMAT
Format: cell-based
Settings: HEK293 cells with human PMAT; 10 μM
Counter-ions that a name gives are not always drawn.
Metric Name: inhibition at 10 µM (%)
Report only the number, with the unit % understood.

Use these answered entries as a reference point.
Compound | Measured Number
N=C(N)NC(=N)NCCc1c[nH]c2ccc([N+](=O)[O-])cc12 [Ex 18, trifluoroacetic acid salt] | 27
N=C(N)NC(=N)NCCc1c[nH]c2cccnc12 | 27
N=C(N)NC(=N)NCc1c[nH]c2ccccc12 [Ex 55, trifluoroacetic acid salt] | 10

Entry under review: N=C(N)NC(=N)NCCc1c[nH]c2ccccc12 [Ex 17, hydrochloride] . Reported inhibition at 10 µM?
54

Entry under review: CC(Cc1cn(C)c2ccc(F)cc12)NC(=N)NC(=N)N (centres unmarked) . Reported inhibition at 10 µM?
8

* * *

Target: human MATE1 (Homo sapiens, UniProt Q96FL8)
Test: Oxygen consumption rate (OCR) assay, HEK293 cells transfected with MATE1
pIC50: −log10 of the molar value. Where a name gives a salt, the structure may show the parent alone.
Given measured pIC50, output TRUE if it is greater than or equal to 3 and FALSE if not.

Compound | Classification
N=C(N)NC(=N)NCCc1c[nH]c2c(F)c(F)c(F)cc12 [Ex 41, trifluoroacetic acid salt] | TRUE
N=C(N)NC(=N)NCCc1c[nH]c2ncc(F)cc12 [Ex 43, trifluoroacetic acid salt] | FALSE

Is the recorded value of pIC50 equal to or greater than 3 for this compound? Cc1ccc2c(CCNC(=N)NC(=N)N)c[nH]c2c1 [Ex 56, trifluoroacetate salt]
TRUE

Is the recorded value of pIC50 equal to or greater than 3 for this compound? N=C(N)NC(=N)NCc1c[nH]c2ccccc12 [Ex 55, trifluoroacetic acid salt]
FALSE

Is the recorded value of pIC50 equal to or greater than 3 for this compound? N=C(N)NC(=N)NCCc1c[nH]c2ccc(Cl)cc12 [Ex 9, trifluoroacetic acid salt]
TRUE

Is the recorded value of pIC50 equal to or greater than 3 for this compound? CC(CNC(=N)NC(=N)N)c1c[nH]c2cc(F)ccc12 (stereo not shown) [Ex 62, trifluoroacetic acid salt]
FALSE

Is the recorded value of pIC50 equal to or greater than 3 for this compound? Cc1cc2c(CCNC(=N)NC(=N)N)c[nH]c2cc1F [Ex 37, trifluoroacetic acid salt]
TRUE

Is the recorded value of pIC50 equal to or greater than 3 for this compound? `N=C(N)NC(=N)NCCc1c[nH]c2c(F)cccc12`
TRUE

Is the recorded value of pIC50 equal to or greater than 3 for this compound? Cc1ccc2[nH]cc(CCNC(=N)NC(=N)N)c2c1 [Ex 10, trifluoroacetic acid salt]
FALSE

Is the recorded value of pIC50 equal to or greater than 3 for this compound? N=C(N)NC(=N)NCCc1c[nH]c2cc(F)cc(F)c12 [Ex 61, trifluoroacetic acid salt]
TRUE

Is the recorded value of pIC50 equal to or greater than 3 for this compound? N=C(N)NC(=N)NCCc1c[nH]c2ccncc12 [Ex 22, hydrochloride]
FALSE

* * *

Target: human MATE1 (Homo sapiens, UniProt Q96FL8)
Sequence (Q96FL8 1-570): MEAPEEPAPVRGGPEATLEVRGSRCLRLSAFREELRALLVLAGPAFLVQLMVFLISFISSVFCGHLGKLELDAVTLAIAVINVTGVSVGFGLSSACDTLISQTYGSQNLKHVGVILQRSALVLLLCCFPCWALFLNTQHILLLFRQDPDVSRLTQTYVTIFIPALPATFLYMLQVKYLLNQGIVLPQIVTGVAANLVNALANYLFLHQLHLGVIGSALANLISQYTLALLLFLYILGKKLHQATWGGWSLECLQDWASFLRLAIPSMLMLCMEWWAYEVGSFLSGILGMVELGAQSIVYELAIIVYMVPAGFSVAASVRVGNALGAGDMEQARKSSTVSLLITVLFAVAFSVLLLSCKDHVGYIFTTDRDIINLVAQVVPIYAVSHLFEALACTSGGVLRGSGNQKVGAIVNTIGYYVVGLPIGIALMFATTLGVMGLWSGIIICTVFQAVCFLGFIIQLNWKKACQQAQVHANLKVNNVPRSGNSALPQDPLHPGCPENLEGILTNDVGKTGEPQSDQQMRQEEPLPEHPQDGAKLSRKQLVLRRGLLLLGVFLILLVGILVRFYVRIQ
Where a name gives a salt, the structure may show the parent alone.
Mark each entry yes (1) if its IC50 sits below 600 µM, and no (0) for all others.

// known answers, use as guide
Molecule | Classification
N=C(N)NC(=N)NCCc1c[nH]c2cc(F)ccc12 [Ex 11, Trifluoroacetic Acid Salt] | yes (1)
N=C(N)NC(=N)NCCc1c[nH]c2ccc(OC(F)(F)F)cc12 [Ex 57, trifluoroacetic acid salt] | no (0)
CN(CCc1c[nH]c2cc(F)ccc12)C(=N)NC(=N)N [Ex 65, trifluoroacetic acid salt] | yes (1)

Confirm or reject: IC50 of CN(C)C(=N)NC(=N)NCCc1c[nH]c2cc(F)ccc12 [Ex 23, hydrochloride] lies strictly below 600 µM
no (0)

Confirm or reject: IC50 of N=C(N)NC(=N)NCCc1c[nH]c2c(F)c(F)c(F)c(F)c12 [Ex 42, trifluoroacetic acid salt] lies strictly below 600 µM
yes (1)

Confirm or reject: IC50 of N=C(N)NC(=N)NCCc1c[nH]c2ccccc12 [Ex 17, hydrochloride] lies strictly below 600 µM
no (0)

Confirm or reject: IC50 of Cn1cc(CCNC(=N)NC(=N)N)c2ccc(F)cc21 [Ex 52, trifluoroacetic acid salt] lies strictly below 600 µM
yes (1)

Confirm or reject: IC50 of CN(C)C(=N)NC(=N)NCCc1c[nH]c2nc(F)ccc12 [Ex. 54, trifluoroacetic acid salt] lies strictly below 600 µM
no (0)

Confirm or reject: IC50 of Cc1cccc2[nH]cc(CCNC(=N)NC(=N)N)c12 [Ex 60, trifluoroacetic acid salt] lies strictly below 600 µM
no (0)

Confirm or reject: IC50 of N=C(N)NC(=N)NCCc1c[nH]c2cccc(Cl)c12 [Ex 34, trifluoroacetic acid salt] lies strictly below 600 µM
yes (1)

Confirm or reject: IC50 of N=C(N)NC(=N)NCCc1c[nH]c2c(Cl)cc(F)cc12 [Ex 38, trifluoroacetic acid salt] lies strictly below 600 µM
no (0)

Confirm or reject: IC50 of N=C(N)NC(=N)NCCc1c[nH]c2ncc(Cl)cc12 [Ex 40, trifluoroacetic acid salt] lies strictly below 600 µM
no (0)

Confirm or reject: IC50 of CN(C)C(=N)NC(=N)NCCc1c[nH]c2ccc(C(F)(F)F)cc12 [Ex 32, hydrochloride] lies strictly below 600 µM
no (0)

Confirm or reject: IC50 of N=C(N)NC(=N)NCCc1c[nH]c2c(F)cc(Cl)cc12 [Ex 64, trifluoroacetic acid salt] lies strictly below 600 µM
yes (1)

Origin of the recorded values: patent US12371404B2
